# Test system: C. glabrata
# protocol-notes: Checkerboard FIC assay in combination with fluconazole (MIC alone and in combination, FICI)
# Format: cell-based, Candida glabrata
# condition-label: in combination with fluconazole, C. glabrata; fluconazole MIC lowered to 8 ug/mL
Exercise: for every item that follows, state its recorded Concentration of Methylgene compound to synergize fluconazole MIC to 8 ug/mL.

**Query** Look up Concentration of Methylgene compound to synergize fluconazole MIC to 8 ug/mL: O=C(Cc1ccc(CCCC(F)(F)c2ccccc2)cc1)NO [Example 29]
**Result** 0.25 µg/mL

**Query** Look up Concentration of Methylgene compound to synergize fluconazole MIC to 8 ug/mL: O=C(Cc1ccc(CCC(O)Cc2ccccc2)cc1)NO (centres unmarked) [Example 57]
**Result** 8 µg/mL

**Query** Look up Concentration of Methylgene compound to synergize fluconazole MIC to 8 ug/mL: COc1ccc(CCCCc2ccc(CC(=O)NO)cc2)cc1 [Example 9]
**Result** 0.06 µg/mL

**Query** Look up Concentration of Methylgene compound to synergize fluconazole MIC to 8 ug/mL: CC(C(=O)NO)c1ccc(CCC(O)Cc2ccccc2)cc1 (centres unmarked) [Example 58]
**Result** 4 µg/mL

**Query** Look up Concentration of Methylgene compound to synergize fluconazole MIC to 8 ug/mL: O=C(Cc1ccc(CCCCc2ccc(NS(=O)(=O)CCN3CCOCC3)cc2)cc1)NO [Example 51]
**Result** 2 µg/mL

**Query** Look up Concentration of Methylgene compound to synergize fluconazole MIC to 8 ug/mL: O=C(Cc1ccc(CCCC(=O)c2ccccc2)cc1)NO [Example 28]
**Result** 1 µg/mL

**Query** Look up Concentration of Methylgene compound to synergize fluconazole MIC to 8 ug/mL: O=C(Cc1ccc(CCCCc2ccc(O)c(O)c2)cc1)NO [Example 19]
**Result** 0.5 µg/mL

**Query** Look up Concentration of Methylgene compound to synergize fluconazole MIC to 8 ug/mL: O=C(Cc1ccc(CCC(F)Cc2ccccc2)cc1)NO (centres unmarked) [Example 60]
**Result** 0.5 µg/mL

**Query** Look up Concentration of Methylgene compound to synergize fluconazole MIC to 8 ug/mL: COCCOCCOCC(=O)Nc1ccc(CCCCc2ccc(CC(=O)NO)cc2)cc1 [Example 35]
**Result** 0.5 µg/mL

**Query** Look up Concentration of Methylgene compound to synergize fluconazole MIC to 8 ug/mL: O=C(Cc1csc(CCCCc2ccccc2)n1)NO [Example 1]
**Result** 1 µg/mL

**Query** Look up Concentration of Methylgene compound to synergize fluconazole MIC to 8 ug/mL: COC(=O)Nc1ccc(CCCCc2ccc(CC(=O)NO)cc2)cc1 [Example 48]
**Result** 0.5 µg/mL

**Query** Look up Concentration of Methylgene compound to synergize fluconazole MIC to 8 ug/mL: Nc1cccc(CCCCc2ccc(CC(=O)NO)cc2)c1 [Example 32]
**Result** 0.25 µg/mL

**Query** Look up Concentration of Methylgene compound to synergize fluconazole MIC to 8 ug/mL: CC(CCCc1ccc(CC(=O)NO)cc1)c1ccccc1 (centres unmarked) [Example 30]
**Result** 0.12 µg/mL

**Query** Look up Concentration of Methylgene compound to synergize fluconazole MIC to 8 ug/mL: COc1ccc(CCCCc2ccc(CC(=O)NO)cc2)cc1OC [Example 13]
**Result** 0.5 µg/mL

**Query** Look up Concentration of Methylgene compound to synergize fluconazole MIC to 8 ug/mL: CC(=O)Nc1cccc(CCCCc2ccc(CC(=O)NO)cc2)c1 [Example 42]
**Result** 2 µg/mL

**Query** Look up Concentration of Methylgene compound to synergize fluconazole MIC to 8 ug/mL: O=C(Cc1ccc(CCCCc2ccc(C(=O)O)cc2)cc1)NO [Example 14]
**Result** 16 µg/mL

**Query** Look up Concentration of Methylgene compound to synergize fluconazole MIC to 8 ug/mL: CN1CCN(CCS(=O)(=O)Nc2cccc(CCCCc3ccc(CC(=O)NO)cc3)c2)CC1 [Example 54]
**Result** 2 µg/mL

**Query** Look up Concentration of Methylgene compound to synergize fluconazole MIC to 8 ug/mL: COCCOCCOCCNC(=O)c1ccc(CCCCc2ccc(CC(=O)NO)cc2)cc1 [Example 11]
**Result** 1 µg/mL

**Query** Look up Concentration of Methylgene compound to synergize fluconazole MIC to 8 ug/mL: CC(=O)Nc1ccc(CCCCc2ccc(CC(=O)NO)cc2)cc1 [Example 39]
**Result** 1 µg/mL

**Query** Look up Concentration of Methylgene compound to synergize fluconazole MIC to 8 ug/mL: O=C(Cc1ccc(CCCCc2ccc(C(=O)N3CCN(CCn4ccnc4)CC3)cc2)cc1)NO [Example 21]
**Result** 2 µg/mL

* * *

# Tested on: C. glabrata
# protocol-notes: Checkerboard FIC assay in combination with fluconazole (MIC alone and in combination, FICI)
# Type: cell-based, Candida glabrata
# condition-label: concentration in combination as multiple of the compound's MIC alone; fluconazole MIC 4 ug/mL
measured-endpoint: Multiple of compound MIC to synergize fluconazole MIC to 4 ug/mL

Below, 6 molecules whose answers are already recorded.
O=C(Cc1ccc(CCCCc2ccc(NC(=O)CO)cc2)cc1)NO [Example 36] :: (¼x)
COCCOCCOCC(=O)Nc1cccc(CCCCc2ccc(CC(=O)NO)cc2)c1 [Example 40] :: (⅛x)
O=C(Cc1ccc(CCCCc2ccc(F)cc2F)cc1)NO [Example 3] :: (½x)
CC(C(=O)NO)c1ccc(CCCCc2ccccc2)cc1 (stereo not shown) [Example 55] :: (¼x)
Cc1ccc(CCCCc2ccc(CC(=O)NO)cc2)cc1 [Example 4] :: (½x)
COCCOCCOCCNC(=O)c1ccc(CCCCc2ccc(CC(=O)NO)cc2)cc1 [Example 11] :: (⅛x)

**Query** Look up Multiple of compound MIC to synergize fluconazole MIC to 4 ug/mL: O=C(Cc1ccc(CCCCc2ccc(C(=O)NCCCn3ccnc3)cc2)cc1)NO [Example 22]
**Result** (⅛x)

**Query** Look up Multiple of compound MIC to synergize fluconazole MIC to 4 ug/mL: O=C(Cc1ccc(CCCCc2ccc(C(=O)N3CCN(CCn4ccnc4)CC3)cc2)cc1)NO [Example 21]
**Result** (⅛X)

**Query** Look up Multiple of compound MIC to synergize fluconazole MIC to 4 ug/mL: CC(C)(C(=O)NO)c1ccc(CCCCc2ccccc2)cc1 [Example 56]
**Result** (½x)

**Query** Look up Multiple of compound MIC to synergize fluconazole MIC to 4 ug/mL: CC(=O)Nc1ccc(CCCCc2ccc(CC(=O)NO)cc2)cc1 [Example 39]
**Result** (⅛x)

* * *

# System: C. glabrata
# protocol-notes: Checkerboard FIC assay in combination with fluconazole (MIC alone and in combination, FICI)
# Type: cell-based, Candida glabrata
# condition-label: C. glabrata; FICI using a fluconazole MIC of 128 μg/mL
measured-endpoint: FICI of combination resulting in fluconazole MIC of: 4 ug/mL (value in parenthesis)
When you answer, write just the number.

**Query** What value of FICI of combination resulting in fluconazole MIC of: 4 ug/mL (value in parenthesis) on C. glabrata does CC(CCCc1ccc(CC(=O)NO)cc1)c1ccccc1 (centres unmarked) have?
**Result** 0.271

**Query** What value of FICI of combination resulting in fluconazole MIC of: 4 ug/mL (value in parenthesis) on C. glabrata does COc1ccc(CCCCc2ccc(CC(=O)NO)cc2)cc1 have?
**Result** 0.271

**Query** What value of FICI of combination resulting in fluconazole MIC of: 4 ug/mL (value in parenthesis) on C. glabrata does O=C(Cc1ccc(CCCCc2ccc(C(=O)N3CCN(C/C=C/c4ccccc4)CC3)cc2)cc1)NO have?
**Result** 0.281

**Query** What value of FICI of combination resulting in fluconazole MIC of: 4 ug/mL (value in parenthesis) on C. glabrata does CC(C(=O)NO)c1ccc(CCC(O)Cc2ccccc2)cc1 (centres unmarked) have?
**Result** 0.156

**Query** What value of FICI of combination resulting in fluconazole MIC of: 4 ug/mL (value in parenthesis) on C. glabrata does O=C(Cc1ccc(C(F)CCCc2ccccc2)cc1)NO (centres unmarked) have?
**Result** 0.281

* * *

# System: C. glabrata
# protocol-notes: Checkerboard FIC assay in combination with fluconazole (MIC alone and in combination, FICI)
# Type: cell-based, Candida glabrata
# condition-label: concentration in combination as multiple of the compound's MIC alone; fluconazole MIC 2 ug/mL
measured-endpoint: Multiple of compound MIC to synergize fluconazole MIC to 2 ug/mL

Below, 4 molecules whose answers are already recorded.
Nc1cccc(CCCCc2ccc(CC(=O)NO)cc2)c1 :: (½x)
O=C(Cc1ccc(CCCCc2cccc(NC(=O)NCCN3CCOCC3)c2)cc1)NO :: (¼x)
O=C(Cc1ccc(CCCCc2ccc(O)c(O)c2)cc1)NO :: (¼x)
O=C(Cc1ccc(CCC(F)Cc2ccccc2)cc1)NO (centres unmarked) :: (½x)

Kindly review the next molecule as well.
**Query** Look up Multiple of compound MIC to synergize fluconazole MIC to 2 ug/mL: CN1CCC(C(=O)Nc2ccc(CCCCc3ccc(CC(=O)NO)cc3)cc2)CC1.Cl
**Result** (¼x)
